# target: cloned human MC4R (Homo sapiens, UniProt P32245)
# Construct: made in house; host or cells: Hi5 insect cells (baculovirus infection); membrane preparation
# Sequence (P32245 whole entry): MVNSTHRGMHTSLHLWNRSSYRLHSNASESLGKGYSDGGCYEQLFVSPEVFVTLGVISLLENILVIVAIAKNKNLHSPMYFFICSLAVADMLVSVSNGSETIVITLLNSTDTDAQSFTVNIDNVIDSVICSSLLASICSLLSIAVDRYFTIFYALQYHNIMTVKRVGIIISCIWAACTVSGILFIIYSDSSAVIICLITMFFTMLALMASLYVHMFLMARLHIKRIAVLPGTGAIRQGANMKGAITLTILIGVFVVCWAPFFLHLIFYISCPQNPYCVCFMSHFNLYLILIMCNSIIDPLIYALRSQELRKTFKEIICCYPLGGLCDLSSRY
# testDescription: Membrane binding assay: competitive inhibition of [125I]NDP-α-MSH binding
# assayContext: read-out: MC4R IC50
measuredProperty: IC50

// worked examples, IC50 included
{"columns": ["smilesRepresentation", "target", "IC50"],
 "data": [
  ["N[C@@H](Cc1ccc(OCCc2cccc3ccccc23)cc1)C(=O)N1CCN(Cc2cccc(Cl)c2Cl)CC1", "cloned human MC4R (Homo sapiens, UniProt P32245)", "< 1500 nM"],
  ["N[C@@H](Cc1ccc(-c2ccccc2C(F)(F)F)cc1)C(=O)N1CCN(Cc2cccc(Cl)c2Cl)CC1", "cloned human MC4R (Homo sapiens, UniProt P32245)", "1500 to 3000 nM"],
  ["N[C@@H](Cc1ccc(-c2ccc(-c3ccccc3)cc2)cc1)C(=O)N1CCN(Cc2cccc(Cl)c2Cl)CC1", "cloned human MC4R (Homo sapiens, UniProt P32245)", "1500 to 3000 nM"],
  ["N[C@@H](Cc1ccc(OCc2ccc(F)cc2F)cc1)C(=O)N1CCN(Cc2cccc(Cl)c2Cl)CC1", "cloned human MC4R (Homo sapiens, UniProt P32245)", "< 1500 nM"],
  ["CC(=O)c1ccc(-c2ccc(C[C@H](N)C(=O)N3CCN(Cc4cccc(Cl)c4Cl)CC3)cc2)s1", "cloned human MC4R (Homo sapiens, UniProt P32245)", "1500 to 3000 nM"]
]}

Input N[C@@H](Cc1ccc(OCCCc2ccccc2)cc1)C(=O)N1CCN(Cc2cccc(Cl)c2Cl)CC1 , output reported IC50.
< 1500 nM

Specify IC50 for Cc1ccc(COc2ccc(C[C@H](N)C(=O)N3CCN(Cc4cccc(Cl)c4Cl)CC3)cc2)cc1C and stop.
< 1500 nM

Answer with the recorded IC50 of COc1ccc(-c2ccc(C[C@H](N)C(=O)N3CCN(Cc4cccc(Cl)c4Cl)CC3)cc2)cn1 only.
> 3000 nM

Using the record for N[C@@H](Cc1ccc(OCc2ccc(C(F)(F)F)cc2)cc1)C(=O)N1CCN(Cc2cccc(Cl)c2Cl)CC1 , state its measured IC50.
< 1500 nM

Item N[C@@H](Cc1ccc(OCc2ccccc2)cc1)C(=O)N1CCCN(C2CCN(CCc3ccccc3)CC2)CC1 : provide IC50
> 3000 nM

Source listed as patent US6916812B2.
